# Tested on: E. coli W3110
# settings: CSV; full MH at pH 7.4
Where a SMILES comes first, the peptide text is derived from it. [ ]: non-standard residue; d: D form. Nleu = CC(C)CNCC(=O)O; Nlys = NCCCCNCC(=O)O
Catalogue of MIC E. coli W3110, full MH at pH 7.4 values
# number only, unit ug/mL dropped from output

Solved entries:
[Q] // fetch MIC E. coli W3110, full MH at pH 7.4 given entry CC(C)C[C@H](NC(=O)CN(CCCCN)C(=O)[C@H](CC(C)C)NC(=O)[C@H](CC(C)C)NC(=O)[C@H](CCCCN)NC(=O)[C@H](CC(C)C)NC(=O)[C@H](CC(C)C)NC(=O)[C@H](CCCCN)NC(=O)CNCCCCN)C(=O)N[C@@H](CC(C)C)C(=O)N(CC(N)=O)CC(C)C [EB2, kKLLKLLkLLl] (H-[Nlys]KLLKLL[Nlys]LL[Nleu]-NH2)
[A] 32

[Q] Read off the recorded MIC E. coli W3110, full MH at pH 7.4 for CC(C)C[C@H](NC(=O)[C@H](CC(C)C)NC(=O)[C@H](CC(C)C)NC(=O)[C@H](CCCCN)NC(=O)[C@H](CC(C)C)NC(=O)[C@H](CC(C)C)NC(=O)CN(CCCCN)C(=O)CN(CC(C)C)C(=O)CN(CC(C)C)C(=O)CN(CCCCN)C(=O)CNCCCCN)C(N)=O [EB5, kkllkLLKLLL] (H-[Nlys][Nlys][Nleu][Nleu][Nlys]LLKLLL-NH2)
[A] 2

In the following, a different molecule is considered.
[Q] Name the recorded MIC E. coli W3110, full MH at pH 7.4 of the item CC(C)C[C@H](NC(=O)[C@H](CCCCN)NC(=O)CNCCCCN)C(=O)N[C@@H](CC(C)C)C(=O)N[C@@H](CCCCN)C(=O)N[C@@H](CC(C)C)C(=O)N[C@@H](CC(C)C)C(=O)N[C@@H](CCCCN)C(=O)N[C@@H](CC(C)C)C(=O)N[C@@H](CC(C)C)C(=O)N(CC(N)=O)CC(C)C [EB1] (H-[Nlys]KLLKLLKLL[Nleu]-NH2; N-terminus assumed) in your answer.
[A] 2

---

Listed here: items and their measured MIC P. aeruginosa PA14 4.13, full MH at pH 7.4.
# System: PA14 4.13 (phoQ)
# settings: CSV; full MH at pH 7.4
Where a SMILES comes first, the peptide text is derived from it. [ ]: non-standard residue; d: D form. Nleu = CC(C)CNCC(=O)O; Nlys = NCCCCNCC(=O)O
I only need the number, in ug/mL, no unit after it.

Solved cases (3 shown):
[Q] Supply recorded MIC P. aeruginosa PA14 4.13, full MH at pH 7.4 for CC(C)C[C@H](NC(=O)[C@H](CC(C)C)NC(=O)[C@H](CC(C)C)NC(=O)[C@@H](CCCCN)NC(=O)[C@H](CC(C)C)NC(=O)[C@H](CC(C)C)NC(=O)[C@@H](CCCCN)NC(=O)[C@H](CC(C)C)NC(=O)[C@H](CC(C)C)NC(=O)[C@@H](CCCCN)NC(=O)[C@H](N)CCCCN)C(N)=O [ln69, kkLLkLLkLLL, reference compound] (H-[dK][dK]LL[dK]LL[dK]LLL-NH2) here.
[A] 4

[Q] Please report the measured MIC P. aeruginosa PA14 4.13, full MH at pH 7.4 for CC(C)C[C@H](NC(=O)[C@H](CCCCN)NC(=O)CNCCCCN)C(=O)N[C@@H](CC(C)C)C(=O)N[C@@H](CCCCN)C(=O)N[C@@H](CC(C)C)C(=O)N[C@@H](CC(C)C)C(=O)N[C@@H](CCCCN)C(=O)N[C@@H](CC(C)C)C(=O)N[C@@H](CC(C)C)C(=O)N(CC(N)=O)CC(C)C [EB1] (H-[Nlys]KLLKLLKLL[Nleu]-NH2; N-terminus assumed)
[A] 8

[Q] Write down MIC P. aeruginosa PA14 4.13, full MH at pH 7.4 measured for item CC(C)C[C@H](NC(=O)[C@H](CC(C)C)NC(=O)[C@H](CC(C)C)NC(=O)[C@H](CCCCN)NC(=O)[C@H](CC(C)C)NC(=O)[C@H](CC(C)C)NC(=O)CN(CCCCN)C(=O)[C@H](CC(C)C)NC(=O)[C@H](CC(C)C)NC(=O)CN(CCCCN)C(=O)CNCCCCN)C(N)=O [EB6, kkLLkLLKLLL] (H-[Nlys][Nlys]LL[Nlys]LLKLLL-NH2)
[A] 4

***
[Q] Given the compound CC(C)C[C@H](NC(=O)[C@H](CC(C)C)NC(=O)[C@H](CC(C)C)NC(=O)[C@H](CCCCN)NC(=O)[C@H](CC(C)C)NC(=O)[C@H](CC(C)C)NC(=O)CN(CCCCN)C(=O)CN(CC(C)C)C(=O)CN(CC(C)C)C(=O)CN(CCCCN)C(=O)CNCCCCN)C(N)=O [EB5, kkllkLLKLLL] (H-[Nlys][Nlys][Nleu][Nleu][Nlys]LLKLLL-NH2) , write its reported MIC P. aeruginosa PA14 4.13, full MH at pH 7.4.
[A] 8
